Assay system Corticotropin-releasing factor receptor 2 (Homo sapiens); read-out recorded as AC50. Note: assay procedure not described here.

Query: Respond only with AC50 recorded for NC(=O)c1cnccn1 [PYRAZINAMIDE]
Result: > 30 µM

Query: Respond only with AC50 recorded for O=C1CCC(N2C(=O)c3ccccc3C2=O)C(=O)N1 (configuration not stated) [THALIDOMIDE]
Result: > 30 µM

Query: Respond only with AC50 recorded for CCC[C@@H]1C[C@@H](C(=O)N[C@@H]([C@H]2O[C@H](SC)[C@H](O)[C@@H](O)[C@H]2O)[C@H](C)Cl)N(C)C1 [CLINDAMYCIN]
Result: > 30 µM

Query: Respond only with AC50 recorded for CN1CCN(C(=O)OC2c3nccnc3C(=O)N2c2ccc(Cl)cn2)CC1 (configuration not stated) [ZOPICLONE]
Result: > 30 µM

Query: Respond only with AC50 recorded for CCNC(C)Cc1cccc(C(F)(F)F)c1 (configuration not stated) [FENFLURAMINE]
Result: > 30 µM

Query: Respond only with AC50 recorded for COc1cc2c(cc1OC)C(=O)C(CC1CCN(Cc3ccccc3)CC1)C2 (configuration not stated) [DONEPEZIL]
Result: > 30 µM

Query: Respond only with AC50 recorded for Cc1ccc(-c2nc3ccc(C)cn3c2CC(=O)N(C)C)cc1 [ZOLPIDEM]
Result: > 30 µM

Query: Respond only with AC50 recorded for CN1CCc2cccc3c2[C@H]1Cc1ccc(O)c(O)c1-3 [APOMORPHINE]
Result: > 30 µM

Query: Respond only with AC50 recorded for C#C[C@]1(O)CC[C@H]2[C@@H]3CCc4cc(O)ccc4[C@H]3CC[C@@]21C [ETHINYL ESTRADIOL]
Result: > 30 µM

Query: Respond only with AC50 recorded for NC(=O)C[S+]([O-])C(c1ccccc1)c1ccccc1 (configuration not stated) [MODAFINIL]
Result: > 30 µM

Query: Respond only with AC50 recorded for C=C1C[C@@H]2[C@H](CC[C@]3(C)C(=O)CC[C@@H]23)[C@@]2(C)C=CC(=O)C=C12 [EXEMESTANE]
Result: > 30 µM

Query: Respond only with AC50 recorded for Oc1ncnc2[nH]ncc12 [ALLOPURINOL]
Result: > 30 µM

Query: Respond only with AC50 recorded for CCc1ccc(CCOc2ccc(CC3SC(=O)NC3=O)cc2)nc1 (configuration not stated) [PIOGLITAZONE]
Result: > 30 µM

Query: Respond only with AC50 recorded for CC(C)NCC(O)COc1ccc(COCCOC(C)C)cc1 (configuration not stated) [BISOPROLOL]
Result: > 30 µM

Query: Respond only with AC50 recorded for CCc1nn(CCCN2CCN(c3cccc(Cl)c3)CC2)c(=O)n1CCOc1ccccc1 [NEFAZODONE]
Result: > 30 µM

Query: Respond only with AC50 recorded for CC(C)(N)Cc1ccc(Cl)cc1 [CHLORPHENTERMINE]
Result: > 30 µM

Query: Respond only with AC50 recorded for CN(C)C(=O)OC1N=C(c2ccccc2)c2cc(Cl)ccc2N(C)C1=O (configuration not stated) [CAMAZEPAM]
Result: > 30 µM

Query: Respond only with AC50 recorded for CN[C@@H](C)[C@H](O)c1ccccc1 [EPHEDRINE]
Result: > 30 µM

Query: Respond only with AC50 recorded for Nc1nc(N)c2nc(-c3ccccc3)c(N)nc2n1
Result: > 30 µM

Query: Respond only with AC50 recorded for COc1ccc2cccc(CCNC(C)=O)c2c1 [AGOMELATINE]
Result: > 30 µM

Query: Respond only with AC50 recorded for CN(C)CCCN1c2ccccc2Sc2ccccc21 [PROMAZINE]
Result: > 30 µM

Query: Respond only with AC50 recorded for CCN(CC)CCNC(=O)c1cc(Cl)c(N)cc1OC [METOCLOPRAMIDE]
Result: > 30 µM

----------
target: Bile salt export pump (Homo sapiens); format: functional; note: assay procedure not described here
Sequence (O95342 whole entry): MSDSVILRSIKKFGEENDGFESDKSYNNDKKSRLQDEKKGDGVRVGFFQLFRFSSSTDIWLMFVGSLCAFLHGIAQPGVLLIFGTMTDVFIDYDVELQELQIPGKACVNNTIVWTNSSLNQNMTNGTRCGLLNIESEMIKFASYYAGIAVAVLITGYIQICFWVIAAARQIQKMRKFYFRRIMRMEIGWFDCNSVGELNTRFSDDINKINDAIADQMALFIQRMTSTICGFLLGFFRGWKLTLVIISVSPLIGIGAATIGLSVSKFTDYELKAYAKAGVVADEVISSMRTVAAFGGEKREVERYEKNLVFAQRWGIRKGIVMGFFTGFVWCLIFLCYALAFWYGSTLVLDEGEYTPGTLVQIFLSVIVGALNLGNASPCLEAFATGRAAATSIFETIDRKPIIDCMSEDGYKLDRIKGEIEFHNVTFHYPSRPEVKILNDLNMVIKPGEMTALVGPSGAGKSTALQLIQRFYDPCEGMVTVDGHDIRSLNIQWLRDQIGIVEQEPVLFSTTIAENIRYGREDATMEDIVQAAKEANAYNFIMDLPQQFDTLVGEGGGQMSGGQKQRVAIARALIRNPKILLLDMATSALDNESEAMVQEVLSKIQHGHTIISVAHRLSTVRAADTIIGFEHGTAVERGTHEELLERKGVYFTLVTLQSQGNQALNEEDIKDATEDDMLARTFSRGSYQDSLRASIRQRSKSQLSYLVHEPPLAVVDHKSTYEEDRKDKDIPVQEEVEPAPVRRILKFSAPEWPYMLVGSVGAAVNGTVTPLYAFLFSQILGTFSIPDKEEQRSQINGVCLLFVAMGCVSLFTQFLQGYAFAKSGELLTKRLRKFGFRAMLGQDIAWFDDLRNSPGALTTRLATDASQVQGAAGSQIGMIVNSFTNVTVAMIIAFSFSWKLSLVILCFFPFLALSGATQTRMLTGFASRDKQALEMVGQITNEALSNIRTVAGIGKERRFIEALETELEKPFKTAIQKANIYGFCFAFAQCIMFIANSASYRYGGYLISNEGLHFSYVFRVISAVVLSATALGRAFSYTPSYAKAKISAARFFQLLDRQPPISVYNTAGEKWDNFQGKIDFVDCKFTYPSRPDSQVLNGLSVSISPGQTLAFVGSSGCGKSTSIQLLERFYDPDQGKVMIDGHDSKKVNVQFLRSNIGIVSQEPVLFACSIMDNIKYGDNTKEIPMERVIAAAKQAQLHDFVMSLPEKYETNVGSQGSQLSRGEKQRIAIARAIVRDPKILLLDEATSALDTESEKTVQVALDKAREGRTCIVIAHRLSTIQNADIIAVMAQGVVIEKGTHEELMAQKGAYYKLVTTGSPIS
Output rule met for records whose AC50 is lower than 30 µM, rule not met for records at or above 30 µM.

Query: Decide: AC50 of CCCS(=O)(=O)Nc1ccc(F)c(C(=O)c2c[nH]c3ncc(-c4ccc(Cl)cc4)cc23)c1F strictly below 30 µM?
Result: rule not met

Query: Decide: AC50 of CNC(=O)c1cc(Oc2ccc(NC(=O)Nc3ccc(Cl)c(C(F)(F)F)c3)cc2)ccn1 strictly below 30 µM?
Result: rule met

Query: Decide: AC50 of Cc1cc2c(cc1CC(=O)c1sccc1S(=O)(=O)Nc1onc(C)c1Cl)OCO2 strictly below 30 µM?
Result: rule met

Query: Decide: AC50 of NC1=NC(=O)C(c2ccccc2)O1 (centres undefined) strictly below 30 µM?
Result: rule not met

Query: Decide: AC50 of CN(CCOc1ccc(NS(C)(=O)=O)cc1)CCc1ccc(NS(C)(=O)=O)cc1 [DOFETILIDE] strictly below 30 µM?
Result: rule not met

Query: Decide: AC50 of CCOC(=O)c1ccc(O)cc1 strictly below 30 µM?
Result: rule not met

Query: Decide: AC50 of CCN(CC)CCNC(=O)c1cc(Cl)c(N)cc1OC [METOCLOPRAMIDE] strictly below 30 µM?
Result: rule not met

Query: Decide: AC50 of CC(C)(C(=O)c1cccnc1)c1cccnc1 strictly below 30 µM?
Result: rule not met

----------
For each of the compounds below, state its AC50.
target: 3',5'-cyclic-AMP phosphodiesterase 4D (Homo sapiens, UniProt Q08499); format: functional; note: assay procedure not described here
Sequence (Q08499 whole entry): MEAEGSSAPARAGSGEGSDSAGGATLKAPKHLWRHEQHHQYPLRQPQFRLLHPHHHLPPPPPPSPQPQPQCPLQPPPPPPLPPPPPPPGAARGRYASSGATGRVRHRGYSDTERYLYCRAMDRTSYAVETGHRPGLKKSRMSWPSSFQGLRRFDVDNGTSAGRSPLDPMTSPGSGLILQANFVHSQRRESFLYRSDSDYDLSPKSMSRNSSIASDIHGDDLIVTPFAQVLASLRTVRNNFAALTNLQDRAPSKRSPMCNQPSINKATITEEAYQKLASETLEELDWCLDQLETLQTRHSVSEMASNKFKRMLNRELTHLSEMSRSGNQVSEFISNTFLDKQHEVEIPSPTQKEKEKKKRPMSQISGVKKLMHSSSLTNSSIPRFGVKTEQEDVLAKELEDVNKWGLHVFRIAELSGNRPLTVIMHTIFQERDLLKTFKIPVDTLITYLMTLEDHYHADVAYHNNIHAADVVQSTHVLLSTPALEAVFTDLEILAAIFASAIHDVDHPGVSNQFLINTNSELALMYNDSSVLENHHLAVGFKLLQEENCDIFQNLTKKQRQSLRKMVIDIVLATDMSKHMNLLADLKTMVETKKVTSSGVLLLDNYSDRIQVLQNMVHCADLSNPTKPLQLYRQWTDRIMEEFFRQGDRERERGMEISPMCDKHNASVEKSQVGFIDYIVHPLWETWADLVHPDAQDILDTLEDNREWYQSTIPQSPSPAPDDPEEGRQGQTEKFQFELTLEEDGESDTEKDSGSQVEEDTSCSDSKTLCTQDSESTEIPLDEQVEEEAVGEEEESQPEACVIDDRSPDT

Query: Respond only with AC50 recorded for COC(=O)[C@@H]1CC2=CC(=O)CC[C@]2(C)[C@@]23O[C@@H]2C[C@@]2(C)[C@@H](CC[C@@]24CCC(=O)O4)[C@H]13
Result: > 30 µM

Query: Respond only with AC50 recorded for NC(N)=Nc1nc(CSCCC(N)=NS(N)(=O)=O)cs1
Result: > 10 µM

Query: Respond only with AC50 recorded for CN(CCCN1c2ccccc2CCc2ccccc21)CC(=O)c1ccc(Cl)cc1
Result: 28 µM

Query: Respond only with AC50 recorded for CC(C)C(=O)Nc1ccc([N+](=O)[O-])c(C(F)(F)F)c1 [FLUTAMIDE]
Result: > 30 µM

Query: Respond only with AC50 recorded for O=C(O)CCCc1ccccc1
Result: > 30 µM

Query: Respond only with AC50 recorded for Cc1cc(-c2ccccc2)nnc1NCCN1CCOCC1
Result: > 30 µM

Query: Respond only with AC50 recorded for CN[C@@H](C)[C@H](O)c1ccccc1
Result: > 30 µM

Query: Respond only with AC50 recorded for CC/C=C\C/C=C\C/C=C\CCCCCCCC(=O)O
Result: > 30 µM

Query: Respond only with AC50 recorded for CO/N=C(\C(=O)N[C@@H]1C(=O)N2C(C(=O)OCOC(=O)C(C)(C)C)=C(C)CS[C@H]12)c1csc(N)n1
Result: > 30 µM

Query: Respond only with AC50 recorded for O=C(Nc1ccccc1)OCC(CN1CCCCC1)OC(=O)Nc1ccccc1 (centres undefined)
Result: > 10 µM

Query: Respond only with AC50 recorded for CN1CCC2=C(C1)C(c1ccccc1)c1ccccc12 (centres undefined)
Result: 8.7 µM

Query: Respond only with AC50 recorded for CCCCCCC(C)(C)c1cc(O)c2c(c1)OC(C)(C)C1CCC(=O)CC21 (centres undefined)
Result: > 30 µM

Query: Respond only with AC50 recorded for COC(=O)N[C@H](C(=O)N[C@@H](Cc1ccccc1)[C@@H](O)CN(Cc1ccc(-c2ccccn2)cc1)NC(=O)[C@@H](NC(=O)OC)C(C)(C)C)C(C)(C)C
Result: > 30 µM

Query: Respond only with AC50 recorded for CNC(=O)c1cc(Oc2ccc(NC(=O)Nc3ccc(Cl)c(C(F)(F)F)c3)cc2)ccn1
Result: > 30 µM

Query: Respond only with AC50 recorded for CC(=O)OCC(=O)[C@@]1(O)CC[C@H]2[C@@H]3CCC4=CC(=O)CC[C@]4(C)[C@H]3C(=O)C[C@@]21C [CORTISONE ACETATE]
Result: > 30 µM

Query: Respond only with AC50 recorded for O=C(OCCN1CCOCC1)c1cccnc1Nc1cccc(C(F)(F)F)c1 [MORNIFLUMATE]
Result: 4.3 µM

Query: Respond only with AC50 recorded for N[C@@H](C(=O)N[C@@H]1C(=O)N2C(C(=O)O)=C(Cl)CS[C@H]12)c1ccccc1 [CEFACLOR ANHYDROUS]
Result: > 30 µM

Query: Respond only with AC50 recorded for NS(=O)(=O)c1cc(Cl)c(Cl)c(S(N)(=O)=O)c1 [DICHLORPHENAMIDE]
Result: > 30 µM

Query: Respond only with AC50 recorded for CCc1nn(CCCN2CCN(c3cccc(Cl)c3)CC2)c(=O)n1CCOc1ccccc1
Result: > 10 µM

----------
target: Neuronal acetylcholine receptor subunit alpha-4 (Homo sapiens, UniProt P43681); note: assay procedure not described here
Sequence (P43681 whole entry): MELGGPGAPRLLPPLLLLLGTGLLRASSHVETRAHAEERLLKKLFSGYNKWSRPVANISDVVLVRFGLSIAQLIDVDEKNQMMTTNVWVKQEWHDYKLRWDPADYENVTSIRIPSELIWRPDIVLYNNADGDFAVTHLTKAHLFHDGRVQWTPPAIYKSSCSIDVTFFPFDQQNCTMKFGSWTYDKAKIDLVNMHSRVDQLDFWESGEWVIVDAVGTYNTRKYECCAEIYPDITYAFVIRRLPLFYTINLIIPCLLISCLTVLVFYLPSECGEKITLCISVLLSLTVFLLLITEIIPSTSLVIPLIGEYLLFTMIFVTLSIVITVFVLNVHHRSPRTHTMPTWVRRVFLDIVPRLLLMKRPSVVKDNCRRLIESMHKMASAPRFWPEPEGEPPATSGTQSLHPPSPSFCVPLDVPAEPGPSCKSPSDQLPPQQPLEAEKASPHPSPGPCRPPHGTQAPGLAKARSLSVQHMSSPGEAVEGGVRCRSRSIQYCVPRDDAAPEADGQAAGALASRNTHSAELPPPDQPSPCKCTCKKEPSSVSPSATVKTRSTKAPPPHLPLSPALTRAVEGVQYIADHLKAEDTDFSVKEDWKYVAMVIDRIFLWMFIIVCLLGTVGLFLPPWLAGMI
RESULT_TYPE: AC50

Query: GET AC50 | system: Neuronal acetylcholine receptor subunit alpha-4 (Homo sapiens, UniProt P43681) | item: C#CC1(OC(N)=O)CCCCC1 [ETHINAMATE]; note: assay procedure not described here
Result: > 10 µM

Query: GET AC50 | system: Neuronal acetylcholine receptor subunit alpha-4 (Homo sapiens, UniProt P43681) | item: O=C(OCCN1CCOCC1)c1cccnc1Nc1cccc(C(F)(F)F)c1 [MORNIFLUMATE]; note: assay procedure not described here
Result: > 30 µM

Query: GET AC50 | system: Neuronal acetylcholine receptor subunit alpha-4 (Homo sapiens, UniProt P43681) | item: CCOc1cc(N)c([N+](=O)[O-])cc1C(=O)NC1CCN(CC2CC=CCC2)CC1 (stereo not given) [CINITAPRIDE]; note: assay procedure not described here
Result: 15 µM

Query: GET AC50 | system: Neuronal acetylcholine receptor subunit alpha-4 (Homo sapiens, UniProt P43681) | item: CCN(CC)CCOC(=O)c1ccc(N)cc1; note: assay procedure not described here
Result: > 10 µM

Query: GET AC50 | system: Neuronal acetylcholine receptor subunit alpha-4 (Homo sapiens, UniProt P43681) | item: NC[C@H]1CC[C@H](C(=O)O)CC1; note: assay procedure not described here
Result: > 10 µM

Query: GET AC50 | system: Neuronal acetylcholine receptor subunit alpha-4 (Homo sapiens, UniProt P43681) | item: CN1CC[C@]23CCCC[C@H]2[C@H]1Cc1ccc(O)cc13; note: assay procedure not described here
Result: > 10 µM

Query: GET AC50 | system: Neuronal acetylcholine receptor subunit alpha-4 (Homo sapiens, UniProt P43681) | item: NC(=O)c1ncn([C@@H]2O[C@H](CO)[C@@H](O)[C@H]2O)c1O; note: assay procedure not described here
Result: > 30 µM

Query: GET AC50 | system: Neuronal acetylcholine receptor subunit alpha-4 (Homo sapiens, UniProt P43681) | item: COc1cc2c(cc1OC)C(=O)C(CC1CCN(Cc3ccccc3)CC1)C2 (stereo not given); note: assay procedure not described here
Result: > 10 µM

Query: GET AC50 | system: Neuronal acetylcholine receptor subunit alpha-4 (Homo sapiens, UniProt P43681) | item: CC/C=C\C/C=C\C/C=C\CCCCCCCC(=O)O; note: assay procedure not described here
Result: > 30 µM

Query: GET AC50 | system: Neuronal acetylcholine receptor subunit alpha-4 (Homo sapiens, UniProt P43681) | item: CCCCCCC(C)(C)c1cc(O)c2c(c1)OC(C)(C)C1CCC(=O)CC21 (stereo not given); note: assay procedure not described here
Result: > 30 µM
